Listing of recorded pEC50 by entry.
test system: Ishikawa human endometrial tumor cells; experiment: Ishikawa alkaline phosphatase assay; assay type: cell-based; details: Homo sapiens, Ishikawa; agonist mode
Please keep in mind that pEC50 is minus log10 of the molar concentration; only the number is needed.

Report pEC50 for Oc1ccc(C2CCc3cc(O)ccc3N2c2ccc(OCCN3CCCC3)cc2)cc1 (centres unmarked) please.
6.79

Next:
Report pEC50 for Oc1ccc(C2CCc3cc(O)ccc3N2c2ccc(OCCN3CCCCC3)cc2)cc1 (centres unmarked) please.
6.58
